These measurements were taken from the supplement of paper PMC8975748.

system: Saccharomyces cerevisiae BY4741 SeMeCo community; experiment: z-score of subpopulation abundance vs DMSO median, subpopulation auxotrophic for UM; higher = larger share of this subpopulation than in DMSO controls; details: 10 µM; 24 h; SM minimal medium; subpopulation (auxotrophy): UM
Where a name gives a salt, the structure may show the parent alone.
Would you please tag the item yes (1) when its z-score of subpopulation abundance is 0.03 or above, and no (0) when it is below?

Does z-score of subpopulation abundance meet or surpass 0.03 for Oc1ccc(C2CNCCc3c2cc(O)c(O)c3Cl)cc1 (configuration not stated) [Fenoldopam mesylate] ? no (0)

Quick check: does CO/N=C(\C(=O)N[C@@H]1C(=O)N2C(C(=O)OC(C)OC(C)=O)=C(COC(N)=O)CS[C@H]12)c1ccco1 (some centres not stated) have z-score of subpopulation abundance greater than or equal to 0.03? yes (1)

Hi, just wondering whether CO/N=C1\C[C@]2(C[C@@H]3C[C@@H](C/C=C(\C)C[C@@H](C)/C=C/C=C4\CO[C@@H]5[C@H](O)C(C)=C[C@@H](C(=O)O3)[C@]45O)O2)O[C@H](/C(C)=C/C(C)C)[C@H]1C shows z-score of subpopulation abundance of 0.03 or higher. yes (1)

Could you verify whether the entry Cc1cc(=O)n(-c2ccccc2)n1C [Antipyrine] shows z-score of subpopulation abundance of no less than 0.03? no (0)

More entries:
Could you tell me if the measured z-score of subpopulation abundance of Nc1ccc(S(=O)(=O)Nc2ccnn2-c2ccccc2)cc1 reaches 0.03 or more? no (0)

Test whether the compound CNS(=O)(=O)CCc1ccc2[nH]cc(C3CCN(C)CC3)c2c1 [Naratriptan HCl] records z-score of subpopulation abundance of 0.03 or higher. yes (1)

====

system: Saccharomyces cerevisiae BY4741 SeMeCo community; experiment: z-score of subpopulation abundance vs DMSO median, subpopulation auxotrophic for M; higher = larger share of this subpopulation than in DMSO controls; settings: 10 µM; 24 h; SM minimal medium; subpopulation (auxotrophy): M
Where a name gives a salt, the structure may show the parent alone.
Task for the reader: assign each of the following molecules its reported z-score of subpopulation abundance.
One number for each entry.

Identify measured z-score of subpopulation abundance associated with CCN(CC)C(=O)[C@@]1(c2ccccc2)C[C@H]1CN [Levomilnacipran Hydrochloride] -0.27

Entry CN1CCCN=C1/C=C/c1cccs1 [Pyrantel Pamoate] needs its z-score of subpopulation abundance filled in; supply it. 1.45

Indicate the recorded z-score of subpopulation abundance value for this molecule: CCCOc1ccc2[nH]c(NC(=O)OC)nc2c1 [Oxibendazole] 0.43

Give z-score of subpopulation abundance for each listed item.
1. NC(=O)c1ncn([C@@H]2O[C@H](CO)[C@@H](O)[C@H]2O)n1 [Ribavirin]
2. CC1(C)S[C@@H]2[C@H](NC(=O)COc3ccccc3)C(=O)N2[C@H]1C(=O)O [Penicillin V potassium salt]

1: -0.5; 2: 0.91

====

tested on: Saccharomyces cerevisiae BY4741 SeMeCo community; assay: z-score of subpopulation abundance vs DMSO median, subpopulation auxotrophic for HUM; higher = larger share of this subpopulation than in DMSO controls; conditions: 10 µM; 24 h; SM minimal medium; subpopulation (auxotrophy): HUM
Counter-ions that a name gives are not always drawn.
Label scheme, based on z-score of subpopulation abundance: band A: < -0.8; band B: ≥ -0.8 and < 0.3; band C: ≥ 0.3

Before answering, review these 5 worked examples.
For this compound, which bin applies? CN(Cc1ccc(C(C)(C)C)cc1)Cc1cccc2ccccc12 [Butenafine HCl] band A

Dear colleague, I would appreciate it if you could identify the bin for CN(C)c1ccc(O)c2c1C[C@H]1C[C@H]3[C@H](N(C)C)C(=O)C(C(N)=O)=C(O)[C@@]3(O)C(=O)C1=C2O [Minocycline HCl] and reply at your convenience. band B

Category lookup for the compound O=C1c2c(O)ccc(O)c2C(=O)c2c(NCCNCCO)ccc(NCCNCCO)c21 [Mitoxantrone 2HCl] band A

Using the reported z-score of subpopulation abundance, which band applies to CN[C@@H]1[C@@H](O)[C@@H](O[C@@H]2[C@@H](O)[C@H](O[C@H]3O[C@H](CN)[C@@H](O)[C@H](O)[C@H]3O)[C@@H](N)C[C@H]2NC(=O)[C@@H](O)CN)OC[C@]1(C)O [Isepamicin Sulphate] ? band C

Please report the category associated with CCOC(=O)C1=C(COCCN)NC(C)=C(C(=O)OC)C1c1ccccc1Cl (stereo not given) [Amlodipine Besylate] , nothing else. band A

***
Record CS(=O)(=O)Nc1ccc([N+](=O)[O-])cc1Oc1ccccc1 [Nimesulide] — which class? band B

Band of CN1CCN(CC(=O)N2c3ccccc3C(=O)Nc3cccnc32)CC1 [Pirenzepine dihydrochloride] ? band B

Given Oc1c(Br)cc(Br)c2cccnc12 , name the class its z-score of subpopulation abundance places it in. band C

Textbook exercise: identify the category of the compound given here, OC1(c2ccc(Cl)c(C(F)(F)F)c2)CCN(CCCC(c2ccc(F)cc2)c2ccc(F)cc2)CC1 , according to its measured value. band C

Determine which band this compound sits in: O=c1[nH]c(=O)n([C@H]2C[C@H](O)[C@@H](CO)O2)cc1/C=C/Br band B

Which bin should I file C[C@@H](O)[C@H]1C(=O)N2C(C(=O)OCOC(=O)C(C)(C)C)=C(SC3CN(C4=NCCS4)C3)[C@H](C)[C@H]12 under? band B

Which bin should I file C=C1CCC2C(C)(CO)C(O)CCC2(C)C1CC=C1C=COC1=O (stereo not given) [Dehydroandrographolide] under? band B

// bin(item) where item = CC[C@H]1OC(=O)[C@H](C)[C@@H](O[C@H]2C[C@@](C)(OC)[C@@H](O)[C@H](C)O2)[C@H](C)[C@@H](O[C@@H]2O[C@H](C)C[C@H](N(C)C)[C@H]2O)[C@](C)(O)C[C@@H](C)/C(=N\OCOCCOC)[C@H](C)[C@@H](O)[C@]1(C)O band C

Looking at CCCCN1CCCCC1C(=O)Nc1c(C)cccc1C (stereo not given) [Bupivacaine HCl] , which class would you pick? band B

Entry Nc1nc2c(ncn2COCCO)c(=O)[nH]1 belongs to which category? band A

====

Field: z-score of subpopulation abundance. Provide a value for each of the compounds that follow.
tested on: Saccharomyces cerevisiae BY4741 SeMeCo community; assay: z-score of subpopulation abundance vs DMSO median, subpopulation auxotrophic for HL; higher = larger share of this subpopulation than in DMSO controls; conditions: 10 µM; 24 h; SM minimal medium; subpopulation (auxotrophy): HL
One number for each entry.

Here's what some known entries look like.
Check the records and state z-score of subpopulation abundance for CC(C)c1c(C(=O)Nc2ccccc2)c(-c2ccccc2)c(-c2ccc(F)cc2)n1CC[C@@H](O)C[C@@H](O)CC(=O)O [Atorvastatin Calcium] 6.43

Name the recorded z-score of subpopulation abundance of the item CC[C@H](C)C[C@H](C)CCCCCCCCC(=O)N[C@H]1C[C@@H](O)[C@@H](NCCN)NC(=O)[C@@H]2[C@@H](O)CCN2C(=O)[C@H]([C@H](O)CCN)NC(=O)[C@H]([C@H](O)[C@@H](O)c2ccc(O)cc2)NC(=O)[C@@H]2C[C@@H](O)CN2C(=O)[C@H]([C@@H](C)O)NC1=O [Caspofungin Acetate] in your answer. 51.3

Tell me measured z-score of subpopulation abundance for Cc1ccc(-c2cc(C(F)(F)F)nn2-c2ccc(S(N)(=O)=O)cc2)cc1 please. -0.61

Identify measured z-score of subpopulation abundance associated with O=c1[nH]c(=O)n([C@H]2C[C@H](O)[C@@H](CO)O2)cc1I -0.43

Report z-score of subpopulation abundance for each item below.
1. COc1ccnc(C[S+]([O-])c2nc3cc(-n4cccc4)ccc3[nH]2)c1C (stereo unspecified) [Ilaprazole sodium]
2. C[C@H]1COc2c(N3CCN(C)CC3)c(F)cc3c(=O)c(C(=O)O)cn1c23

1. 6.22
2. -0.59

====

system: Saccharomyces cerevisiae BY4741 SeMeCo community; assay: z-score of subpopulation abundance vs DMSO median, subpopulation auxotrophic for LU; higher = larger share of this subpopulation than in DMSO controls; settings: 10 µM; 24 h; SM minimal medium; subpopulation (auxotrophy): LU
Where a name gives a salt, the structure may show the parent alone.
Respond with condition met for z-score of subpopulation abundance values of 1 and above, condition not met for values below.

I'd appreciate it if you could say whether CO[C@H]1C[C@@H]2CC[C@@H](C)[C@@](O)(O2)C(=O)C(=O)N2CCCC[C@H]2C(=O)O[C@H]([C@H](C)C[C@@H]2CC[C@@H](OCCO)[C@H](OC)C2)CC(=O)[C@H](C)/C=C(\C)[C@@H](O)[C@@H](OC)C(=O)[C@H](C)C[C@H](C)/C=C/C=C/C=C/1C [Everolimus (RAD001)] has z-score of subpopulation abundance at least equal to 1. condition met

Is z-score of subpopulation abundance for CN1C[C@@H]2C[C@H]1CN2c1cc2c(cc1F)c(=O)c(C(=O)O)cn2C1CC1 [Danofloxacin Mesylate] at or above 1? condition not met

Does the reported z-score of subpopulation abundance for O=C(O)C[C@H](O)C[C@H](O)/C=C/c1c(C2CC2)nc2ccccc2c1-c1ccc(F)cc1 [Pitavastatin Calcium] fall at or above the 1 mark? condition met

Continuing:
Is z-score of subpopulation abundance at least 1? Consider CC(C)[N+](C)(CCOC(=O)C1c2ccccc2Oc2ccccc21)C(C)C [Propantheline bromide] condition not met

State whether the measured z-score of subpopulation abundance reaches 1, counting equality as reaching it, for CCCCCNC(=N)N/N=C/c1c[nH]c2ccc(OC)cc12 [Tegaserod Maleate] condition not met

Is the recorded value of z-score of subpopulation abundance equal to or greater than 1 for this molecule? O=C([O-])CC(O)(CC(=O)[O-])C(=O)[O-].O=C([O-])CC(O)(CC(=O)[O-])C(=O)[O-].[Bi+3].[K+].[K+].[K+].[K+].[K+] [Bismuth Subcitrate Potassium] condition met
